- test method notes: Solubility of polydatin in alcohol-water solution and normal saline (Embodiment 13)
- Type: physicochemical
- condition notes: alcohol-water solution, aqueous with cosolvent or surfactant or cyclodextrin, thermodynamic from solid, content of alcohol 40% (v/v) in water; room temperature
reported property: solubility at 8 h (µg/mL)
Answers are plain numbers, in µg/mL.

So what does the record say about solubility at 8 h for OCC1OC(Oc2cc(O)cc(/C=C/c3ccc(O)cc3)c2)C(O)C(O)C1O (stereo not shown) ?
9200

###

- test method notes: Solubility of polydatin in alcohol-water solution and normal saline (Embodiment 13)
- Format: physicochemical
- condition notes: alcohol-water solution, aqueous with cosolvent or surfactant or cyclodextrin, thermodynamic from solid, content of alcohol 80% (v/v) in water; room temperature
- Description: • 1. Materials: Anhydrous alcohol, analytically pure, Guangzhou No.2 chemical reagent factory; purified water, […] industry city; 0.9% sodium chloride injection, batch number C040514-092, Sichuan kelun pharmaceutical co., ltd. • 2. Method: Preparing alcohol water solutions having concentration of 15%, […] 30%, 40%, 50%, 60%, 70%, 80%, 90%, 95%(v/v) with anhydrous alcohol and purified water. […]
reported property: solubility at 8 h (mg/mL)
One number for each entry, in mg/mL.

So what does the record say about solubility at 8 h for OCC1OC(Oc2cc(O)cc(/C=C/c3ccc(O)cc3)c2)C(O)C(O)C1O (stereo not shown) ?
76.8

###

- test method notes: Solubility of polydatin in alcohol-propanediol-water mixed solvent (Embodiment 15)
- Format: physicochemical
- condition notes: alcohol-water solution without propanediol, aqueous with cosolvent or surfactant or cyclodextrin, thermodynamic from solid, 60% alcohol water, no propanediol (10/—)
reported property: solubility at 8 h (mg/mL)
Give bare numbers, in mg/mL.

So what does the record say about solubility at 8 h for OCC1OC(Oc2cc(O)cc(/C=C/c3ccc(O)cc3)c2)C(O)C(O)C1O (stereo not shown) [polydatin] ?
42.5

###

- test method notes: Solubility of polydatin in alcohol-propanediol-water mixed solvent (Embodiment 15)
- Assay type: physicochemical
- condition notes: alcohol-propanediol-water mixed solvent, aqueous with cosolvent or surfactant or cyclodextrin, thermodynamic from solid, 75% alcohol water/propanediol 10/4
reported property: solubility at 8 h (mg/mL)
Numbers only, in mg/mL.

So what does the record say about solubility at 8 h for OCC1OC(Oc2cc(O)cc(/C=C/c3ccc(O)cc3)c2)C(O)C(O)C1O (stereo not shown) ?
116

###

- test method notes: Effect of pH to solubility of polydatin (Embodiment 12)
- Assay type: physicochemical
- condition notes: deionized water of adjusted pH, pH 12, aqueous buffer, thermodynamic from solid, pH of solvent 12.0; water, room temperature
reported property: solubility at 8 h

So what does the record say about solubility at 8 h for OCC1OC(Oc2cc(O)cc(/C=C/c3ccc(O)cc3)c2)C(O)C(O)C1O (stereo not shown) ?
~5000 µg/mL

###

- test method notes: Solubility of polydatin in alcohol-propanediol-water mixed solvent (Embodiment 15)
- Type: physicochemical
- condition notes: alcohol-propanediol-water mixed solvent, aqueous with cosolvent or surfactant or cyclodextrin, thermodynamic from solid, 45% alcohol water/propanediol 10/2
reported property: solubility at 8 h (mg/mL)
Answers are plain numbers, in mg/mL.

So what does the record say about solubility at 8 h for OCC1OC(Oc2cc(O)cc(/C=C/c3ccc(O)cc3)c2)C(O)C(O)C1O (stereo not shown) ?
34.3

###

- test method notes: Solubility of polydatin in alcohol-propanediol-water mixed solvent (Embodiment 15)
- Assay type: physicochemical
- condition notes: alcohol-propanediol-water mixed solvent, aqueous with cosolvent or surfactant or cyclodextrin, thermodynamic from solid, 60% alcohol water/propanediol 10/1
reported property: solubility at 8 h (mg/mL)
One number for each entry, in mg/mL.

So what does the record say about solubility at 8 h for OCC1OC(Oc2cc(O)cc(/C=C/c3ccc(O)cc3)c2)C(O)C(O)C1O (stereo not shown) [polydatin] ?
55.7
